- PROCEDURE TEXT: chemical genetic growth profiling, strain panel (AID 1159580);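 further: tested at 20 µM; growth read once vehicle control cultures reached saturation at 30 °C; 1 = growth at the plate median or of vehicle wells; lower values mean less growth of the strain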
- PARTICULARS: S. cerevisiae deletion strains, growth OD, locus YLR258W, strain gsy2, stronger effect = lower value
Hit rate of the full screen: of about 5,500 compounds, about 2,000 (36%) were called active. Another 18% or so got no clear call; they are omitted. Some of the results follow.
RESULT TYPE: normalized growth

Could you tell me which normalized growth is on file for CCCC(C)C1(CC)C(=O)N=C(S)NC1=O (stereo unspecified) ?
1 (inactive)

Could you tell me which normalized growth is on file for `CC(=O)Nc1cc([As](=O)(O)O)ccc1O` ?
0.998 (inactive)

Could you tell me which normalized growth is on file for `CC(=O)Nc1ccc(S(=O)(=O)c2ccc(NC(C)=O)cc2)cc1` ?
1.02 (inactive)

Could you tell me which normalized growth is on file for `O=[N+]([O-])c1cc([As](=O)(O)O)ccc1O` ?
0.975 (inactive)

Could you tell me which normalized growth is on file for CC1(C)C(C(Cl)Cl)C2(Cl)C(Cl)C(Cl)C1(Cl)C2(Cl)Cl (stereo unspecified) ?
0.975 (inactive)

Alright, here's another compound for you.
Could you tell me which normalized growth is on file for `Nc1ccc(S(=O)(=O)Nc2ccccn2)cc1` ?
1 (inactive)

* * *

Task for the reader: assign each of the following compounds its reported normalized growth.
- PROCEDURE TEXT: chemical genetic growth profiling, strain panel (AID 1159580)
- PARTICULARS: S. cerevisiae deletion strains, growth OD, locus YAL030W, strain snc1, stronger effect = lower value
Among all 5,500 compounds or so, about 2,000 (36%) were called active. Another 18% or so got no clear call; they are omitted. This is one part of the list.
Numbers only.

Answered cases to consult:
Could you tell me which normalized growth is on file for `Oc1c(I)cc(I)c2cccnc12` ?
0.0764

Could you tell me which normalized growth is on file for `C=C(C)[C@H]1CC=C(C(=O)O)CC1` ?
0.985

Could you tell me which normalized growth is on file for `NCCCC[C@H](N[C@@H](CCc1ccccc1)C(=O)O)C(=O)N1CCC[C@H]1C(=O)O` ?
0.978

Could you tell me which normalized growth is on file for CN1C(CC(=O)c2ccccc2)CCCC1CC(O)c1ccccc1 (stereo not given) ?
0.977

Alright, here's another compound for you.
Could you tell me which normalized growth is on file for `O=C(NC(=O)c1c(F)cccc1F)Nc1ccc(Cl)cc1` ?
1.02

* * *

Task for the reader: assign each of the following compounds its reported normalized growth.
- PROCEDURE TEXT: chemical genetic growth profiling, strain panel (AID 1159580)
- PARTICULARS: S. cerevisiae deletion strains, growth OD, locus YDL005C, strain med2, stronger effect = lower value
The whole screen tested about 5,500 compounds, of which about 2,000 (36%) were called active. Inconclusive results (about 18%) are left out. Some of the results follow.

Answered cases to consult:
Could you tell me which normalized growth is on file for `CC(=O)Nc1cc([As](=O)(O)O)ccc1O` ?
1 (inactive)

Could you tell me which normalized growth is on file for `CCN(CC)CCNC(=O)c1cc(S(C)(=O)=O)ccc1OC` ?
0.972 (inactive)

Could you tell me which normalized growth is on file for CC1(C)C(C(Cl)Cl)C2(Cl)C(Cl)C(Cl)C1(Cl)C2(Cl)Cl (stereo unspecified) ?
0.981 (inactive)

Could you tell me which normalized growth is on file for NC(=NCCC[C@H](N)C(=O)O)NC(CCC(=O)O)C(=O)O (stereo partly specified) ?
1.01 (inactive)

Could you tell me which normalized growth is on file for `C=C(C)[C@H]1CC=C(C(=O)O)CC1` ?
0.97 (inactive)

Hey, quick one: what's normalized growth for each of these?
1. CN(C)CCOC(C)(c1ccccc1)c1ccccn1 (stereo unspecified)
2. Nc1ncnc2c1ncn2[C@@H]1O[C@H](CO)[C@@H](O)[C@H]1O
3. CC(C)=CCC/C(C)=C/CC/C(C)=C/CC/C(C)=C/CC/C(C)=C/CC/C(C)=C/CC/C(C)=C/CC/C(C)=C/CC/C(C)=C/CO
4. Cc1ccsc1/C=C/C1=NCCCN1C

1.01 (inactive)
0.992 (inactive)
0.992 (inactive)
0.983 (inactive)

Hey, quick one: what's normalized growth for each of these?
1. C=CC(C1=CC(=O)C(OC)=CC1=O)c1ccccc1 (stereo unspecified)
2. C/C=C/c1ccc2c(c1)OCO2
3. N[C@@H](Cc1ccc(O)c(O)c1)C(=O)O
4. COc1ccccc1OCCNCC(O)COc1cccc2[nH]c3ccccc3c12 (stereo unspecified)
5. O=C1C=CC2=C3c4cc(O)c(O)cc4C[C@@]3(O)COC2=C1
6. C=CC(C1=CC(=O)C(OC)=CC1=O)c1ccc(OC)cc1 (stereo unspecified)
7. Nc1ncnc2c1ncn2C1O[C@H](COP(=O)(O)O)[C@@H](O)[C@H]1O (stereo partly specified)
8. C=CC(C1=CC(=O)C(OC)=CC1=O)c1ccc(O)cc1 (stereo unspecified)

1. 1 (inactive)
2. 1.02 (inactive)
3. 0.994 (inactive)
4. 1.02 (inactive)
5. 0.966 (inactive)
6. 1.01 (inactive)
7. 1.03 (inactive)
8. 0.999 (inactive)

Hey, quick one: what's normalized growth for each of these?
1. O=C1CCCC2C3CC(CN12)[C@@H]1CCCCN1C3 (stereo partly specified)
2. COC(C)(C)CCC[C@H](C)C/C=C/C(C)=C/C(=O)OC(C)C

0.991 (inactive)
1 (inactive)

Hey, quick one: what's normalized growth for each of these?
1. C[C@H](N)[C@H](O)c1ccc(O)c(O)c1
2. CC(=O)Nc1ccc(S(=O)(=O)c2ccc(NC(C)=O)cc2)cc1
3. COc1c2c(cc3c1OCO3)CCN(C)C2
4. C=C[C@@H](C1=CC(=O)C(OC)=C(OC)C1=O)c1ccccc1
5. CCC(Cc1c(I)cc(I)c(N)c1I)C(=O)O (stereo unspecified)
6. O=c1[nH]c(=O)n(C2C[C@@H](O)[C@@H](CO)O2)cc1F (stereo partly specified)

0.996 (inactive)
1.01 (inactive)
1.02 (inactive)
1 (inactive)
0.95 (inactive)
0.992 (inactive)

* * *

- PROCEDURE TEXT: chemical genetic growth profiling, strain panel (AID 1159580);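 further: tested at 20 µM; growth read once vehicle control cultures reached saturation at 30 °C; 1 = growth at the plate median or of vehicle wells; lower values mean less growth of the strain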
- PARTICULARS: S. cerevisiae deletion strains, growth OD, locus YDR363W, strain ESC2, stronger effect = lower value
Out of some 5,500 compounds screened, about 2,000 (36%) were called active. Roughly 18% stayed inconclusive and do not appear here. The list shows a part of the results.
normalized growth under 1 gets 1, anything at or over 1 gets 0.

I wonder whether `CCN1CCc2nc(N)oc2CC1` has normalized growth below 1. Can you tell?
0

I wonder whether `C[C@H](Cc1ccc(O)c(O)c1)[C@@H](C)Cc1ccc(O)c(O)c1` has normalized growth below 1. Can you tell?
1

I wonder whether `Cc1ccc(/C(=C\CN2CCCC2)c2ccccn2)cc1` has normalized growth below 1. Can you tell?
1

I wonder whether `CN(C)C(N)=NCCC[C@H](N)C(=O)O` has normalized growth below 1. Can you tell?
0

More entries:
I wonder whether C=C(C)C1CC=C(C(=O)O)CC1 (stereo unspecified) has normalized growth below 1. Can you tell?
1

I wonder whether Nc1ncnc2c1ncn2[C@@H]1O[C@H](COP(=O)(O)OP(=O)(O)OP(=O)(O)OP(=O)(O)OC[C@@H]2O[C@H](n3cnc4c(N)ncnc43)C(O)[C@@H]2O)[C@H](O)C1O (stereo partly specified) has normalized growth below 1. Can you tell?
0

I wonder whether `O=C(CCNNC(=O)c1ccncc1)NCc1ccccc1` has normalized growth below 1. Can you tell?
1

* * *

Task for the reader: assign each of the following compounds its reported normalized growth.
- PROCEDURE TEXT: chemical genetic growth profiling, strain panel (AID 1159580);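 further: tested at 20 µM; growth read once vehicle control cultures reached saturation at 30 °C; 1 = growth at the plate median or of vehicle wells; lower values mean less growth of the strain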
- PARTICULARS: S. cerevisiae deletion strains, growth OD, locus YOR080W, strain dia2, stronger effect = lower value
In all, about 5,500 compounds went through this assay and about 2,000 (36%) were called active. Inconclusive results (about 18%) are left out. The list shows a part of the results.

Could you tell me which normalized growth is on file for `O=C(NC(=O)c1c(F)cccc1F)Nc1ccc(Cl)cc1` ?
1.03 (inactive)

Could you tell me which normalized growth is on file for CCCC(C)C1(CC)C(=O)N=C(S)NC1=O (stereo not drawn) ?
0.989 (inactive)

More entries:
Could you tell me which normalized growth is on file for C=CCC1(C(C)CCC)C(=O)N=C(S)NC1=O (stereo not drawn) ?
0.959 (inactive)

* * *

- PROCEDURE TEXT: chemical genetic growth profiling, strain panel (AID 1159580);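 further: tested at 20 µM; growth read once vehicle control cultures reached saturation at 30 °C; 1 = growth at the plate median or of vehicle wells; lower values mean less growth of the strain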
- PARTICULARS: S. cerevisiae deletion strains, growth OD, locus YGL078C, strain dbp3, stronger effect = lower value
In all, about 5,500 compounds went through this assay and about 2,000 (36%) were called active. Inconclusive results (about 18%) are left out. The list shows a part of the results.
Task for the reader: assign each of the following compounds its reported normalized growth.
Numbers only.

Could you tell me which normalized growth is on file for `CS(=O)(=O)CCCCN=C=S` ?
0.92

Could you tell me which normalized growth is on file for `C/C=C/c1ccc2c(c1)OCO2` ?
1.02

Could you tell me which normalized growth is on file for `COc1c2c(cc3c1OCO3)CCN(C)C2` ?
1

Hey, quick one: what's normalized growth for each of these?
1. CC(Cc1ccc(O)c(O)c1)C(C)Cc1ccc(O)c(O)c1 (stereo not given)
2. Cc1ccsc1/C=C/C1=NCCCN1C
3. O=C(CCCCCCCCCCCCC1CCCC1)Nc1ccc(S(=O)(=O)c2ccc(NC(=O)CCCCCCCCCCCCC3CCCC3)cc2)cc1
4. CCC(Cc1c(I)cc(I)c(N)c1I)C(=O)O (stereo not given)
5. CCN(CC)CCNC(=O)c1cc(S(C)(=O)=O)ccc1OC
6. C[C@H]1[C@H]2CCC3C4CC=C5C[C@@H](N(C)C)CC[C@]5(C)C4CC[C@@]32CN1C (stereo not given in full)

[0.999, 0.984, 0.992, 0.997, 1.01, 0.996]

Could you tell me which normalized growth is on file for CC(=O)O[C@@H]1CC2C(C)(C)C(=O)CC[C@]2(C)C2CC[C@]3(C)C(=CC(=O)O[C@H]3c3ccoc3)[C@@]21C (stereo not given in full) ?
1.01
